E. faecalis: reported MIC for various compounds.
Just the number please, in µM, no unit attached.

>>> readout_number("CCCCCCOc1ccc(-c2sc3c(C4CC4)c(Cc4cccc5ccccc45)cc(=O)n3c2C(=O)O)cc1C")
67

What value of MIC has been reported for the following compound? O=C(O)C1C(c2ccccc2)Sc2c(-c3ccc4c(c3)OCO4)c(COc3cccc4ccccc34)cc(=O)n21 (stereo not shown)
400

// returns reported MIC for input COc1ccc(-c2sc3c(C4CC4)c(Cc4cccc5ccccc45)cc(=O)n3c2C(=O)O)cc1C
250

Reported MIC, compound CCCCOc1ccc(-c2sc3c(C4CC4)c(Cc4cccc5ccccc45)cc(=O)n3c2C(=O)O)cc1 : ____
300

Give its MIC value. Item: Cc1cccc(-c2sc3c(C4CC4)c(Cc4cccc5ccccc45)cc(=O)n3c2C(=O)O)c1
50

Record request: MIC value, item CCCOc1ccc(-c2sc3c(OC)c(Cc4cccc5ccccc45)cc(=O)n3c2C(=O)O)cc1C
188

Item CCCCCOc1ccc(-c2sc3c(C4CC4)c(Cc4cccc5ccccc45)cc(=O)n3c2C(=O)O)cc1 has what recorded MIC?
300

Cited source for all entries: patent US12472168B2
